The reported measurements were obtained from patent US20060292553A1.

# Tested on: HIV-1 virus of the patient (recombinant virus)
# assay-protocol: Phenoscript phenotyping, recombinant virus of the patient in the presence of drugs
# Assay type: cell-based
# condition-label: Patient 1 plasma sample
observable: Phenoscript Contribution to the therapeutic response

Recorded results for 5 compounds are shown here.
Cc1cn([C@H]2C[C@H](N=[N+]=[N-])[C@@H](CO)O2)c(=O)[nH]c1=O [AZT]	Improbable
Cc1ccnc2c1NC(=O)c1cccnc1N2C1CC1 [NVP]	Improbable
O=c1[nH]cnc2c1ncn2[C@H]1CC[C@@H](CO)O1 [ddI]	Probable
Nc1ccn([C@@H]2CS[C@H](CO)O2)c(=O)n1 [3TC]	Improbable
CC(C)(C)NC(=O)[C@@H]1C[C@@H]2CCCC[C@@H]2CN1C[C@@H](O)[C@H](Cc1ccccc1)NC(=O)[C@H](CC(N)=O)NC(=O)c1ccc2ccccc2n1 [SQV]	Probable

In: What does the data say about its Phenoscript Contribution to the therapeutic response? Entry: O=C1Nc2ccc(Cl)cc2[C@@](C#CC2CC2)(C(F)(F)F)O1 [EFV]
Out: Improbable

In: Given Cc1cn([C@H]2C=C[C@@H](CO)O2)c(=O)[nH]c1=O [d4T] , state its recorded Phenoscript Contribution to the therapeutic response.
Out: Probable

In: Consider the compound Cc1c(O)cccc1C(=O)N[C@@H](CSc1ccccc1)[C@H](O)CN1C[C@H]2CCCC[C@H]2C[C@H]1C(=O)NC(C)(C)C [NFV] and give its measured Phenoscript Contribution to the therapeutic response.
Out: Probable

In: Record request: Phenoscript Contribution to the therapeutic response value, item CC(C)CN(C[C@@H](O)[C@H](Cc1ccccc1)NC(=O)O[C@H]1CCOC1)S(=O)(=O)c1ccc(N)cc1 [APV]
Out: Probable

In: Dear colleague, I am looking for the recorded Phenoscript Contribution to the therapeutic response of the following compound: Cc1cccc(C)c1OCC(=O)N[C@@H](Cc1ccccc1)[C@@H](O)C[C@H](Cc1ccccc1)NC(=O)[C@H](C(C)C)N1CCCNC1=O [LPV]
Out: Probable

In: Record request: Phenoscript Contribution to the therapeutic response value, item CC(C)(C)NC(=O)[C@@H]1CN(Cc2cccnc2)CCN1C[C@@H](O)C[C@@H](Cc1ccccc1)C(=O)N[C@H]1c2ccccc2C[C@H]1O [IDV]
Out: Probable
